Readings of inhibition for the listed compounds
Molecular target: Rac GTPase-activating protein 1 (Homo sapiens)
Experiment: blockers of MgcRacGAP-driven Rac1 GTP hydrolysis – biochemical, ADP Hunter fluorescence, primary and confirmatory, confirmation (AID 624330);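 note: fluorescence reports GDP produced by GAP-driven GTP hydrolysis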
Details: MgcRacGAP-stimulated Rac1 GTP hydrolysis, at 30 µM, hits give high values, GST-tagged Rac1 F28L mutant substrate
Hit rate of the full screen: of about 340,000 compounds, about 2,100 (0.62%) were called active. Not all results are given here. Results with a measured potency or affinity are listed apart.
measure_name: inhibition (%)

> print(dat)
                                    compound  units.label  measured.value
 1    COc1cc(/C=C2/CCc3ccccc3C2=O)cc(OC)c1OC            %            4.12
 2       Oc1ccc(/C=N/NC(=S)Nc2cccnc2)c(O)c1O            %            -102
 3  COc1ccccc1C(CNC(=O)c1cccc(S(=O)(=O)N2CCCc3ccccc32)c1)N(C)C (stereo unspecified)            %            4.28
 4  Fc1ccc(CN2CCCN(Cc3nc(-c4ccc5c(c4)OCO5)no3)CC2)cc1            %            7.98
 5            O=C(c1ccco1)N1CCN=C1SCc1cccnc1            %            4.28
 6  O=C(CCCCCNC(=O)c1ccccc1)N/N=C/c1ccc(F)cc1            %            6.47
 7      O=C(COc1ccccc1)NCC(=O)N/N=C/c1ccccc1            %            5.67
 8     Cc1ccc(-c2nc3ncccc3o2)cc1NC(=O)CC(C)C            %            4.77
 9        C(=N\Nc1ccccc1)/c1ccc(N2CCOCC2)cc1            %              11
10                    CCn1nnnc1Oc1ccc(Cl)cc1            %            1.61
11  COc1ccc2cc(/C=N/NC(=O)c3c(Cl)cnn3C)c(Cl)nc2c1            %            3.85
